# Tested on: IL-5
# assayName: PHA-stimulated human PBMC, IL-5 in supernatant by Cytometric Bead Array
# Type: cell-based
# conditionDescription: Homo sapiens, PHA 10 μg/ml, read-out: IC50 inhibitory activity, stimulation-induced IL-5
endpointLabel: IC50 (µM)
Report the value in µM with no unit label.

C=CCc1ccc(O)c(O)c1
4.5

Which IC50 reading was recorded for the compound C=CCc1cccc(OC(C)=O)c1OC(C)=O [Compound 19, 3-allyl-1,2-phenylene diacetate] ?
35

Next record, please: "C=CCc1cccc(O)c1O"
30

Next record, please: C=CCc1ccc(OC(C)=O)c(OC(C)=O)c1 [Compound 7, 4-allyl-1,2-phenylene diacetate]
4
